- Tested on: 439559-082-T-J2-PDC complex spheroid growth;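 note: spheroids exposed to agents for 7 days starting day 3 after seeding; percent of DMSO vehicle control viability with 100% = vehicle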
- assay protocol: Anticancer human tumor 439559-082-T-J2-PDC patient-derived colon adenocarcinoma cell line growth inhibition [Asc]
- study conditions: second compound 0.1 µM; first compound 0.0316 µM; hits give low values
property: viability, T/C (%)
One number for each entry, in %.

{"compound": "CCN1CCN(Cc2ccc(Nc3ncc(F)c(-c4cc(F)c5nc(C)n(C(C)C)c5c4)n3)nc2)CC1 + CNC(C)C(=O)NC1CN(S(=O)(=O)c2cccc(S(=O)(=O)N3CCC4CCC(C(=O)NC(c5ccccc5)c5ccccc5)N4C(=O)C(NC(=O)C(C)NC)C3)c2)CCC2CCC(C(=O)NC(c3ccccc3)c3ccccc3)N2C1=O", "measurement target": "439559-082-T-J2-PDC complex spheroid growth", "viability, T/C, %": 99}
{"compound": "Cn1ncnc1[C@H]1c2n[nH]c(=O)c3cc(F)cc(c23)N[C@@H]1c1ccc(F)cc1 + Cc1c(S(C)(=O)=O)c(-c2cc(F)cc(N3CCN(c4ccc(NS(=O)(=O)c5ccc(NC(CCN6CCC(C(=O)OCCCP(=O)(O)O)CC6)CSc6ccccc6)c(S(=O)(=O)C(F)(F)F)c5)cc4)CC3)c2)c(-c2ccc(Cl)cc2)n1C(C)C", "measurement target": "439559-082-T-J2-PDC complex spheroid growth", "viability, T/C, %": 98}

Would you mind listing viability, T/C for each of the following compounds?
1. C=CC(=O)N1CCN(c2nc(=O)n(-c3c(C)ccnc3C(C)C)c3nc(-c4c(O)cccc4F)c(F)cc23)C(C)C1 (stereo not drawn) + Cc1c(S(C)(=O)=O)c(-c2cc(F)cc(N3CCN(c4ccc(NS(=O)(=O)c5ccc(NC(CCN6CCC(C(=O)OCCCP(=O)(O)O)CC6)CSc6ccccc6)c(S(=O)(=O)C(F)(F)F)c5)cc4)CC3)c2)c(-c2ccc(Cl)cc2)n1C(C)C
2. C#Cc1c(F)ccc2cc(O)cc(-c3ncc4c(N5CC6CCC(C5)N6)nc(OCC56CCCN5CC(F)C6)nc4c3F)c12 (stereo not drawn) + Cc1c(S(C)(=O)=O)c(-c2cc(F)cc(N3CCN(c4ccc(NS(=O)(=O)c5ccc(NC(CCN6CCC(C(=O)OCCCP(=O)(O)O)CC6)CSc6ccccc6)c(S(=O)(=O)C(F)(F)F)c5)cc4)CC3)c2)c(-c2ccc(Cl)cc2)n1C(C)C
3. O=C(c1ccc(F)c(F)c1Nc1ccc(I)cc1F)N1CC(O)([C@@H]2CCCCN2)C1 + CNC(C)C(=O)NC1CN(S(=O)(=O)c2cccc(S(=O)(=O)N3CCC4CCC(C(=O)NC(c5ccccc5)c5ccccc5)N4C(=O)C(NC(=O)C(C)NC)C3)c2)CCC2CCC(C(=O)NC(c3ccccc3)c3ccccc3)N2C1=O
4. NC1CCC(NC2CC2c2ccccc2)CC1 (stereo not drawn) + CNC(C)C(=O)NC1CN(S(=O)(=O)c2cccc(S(=O)(=O)N3CCC4CCC(C(=O)NC(c5ccccc5)c5ccccc5)N4C(=O)C(NC(=O)C(C)NC)C3)c2)CCC2CCC(C(=O)NC(c3ccccc3)c3ccccc3)N2C1=O
5. COc1c(OCCCN2CCOCC2)ccc2c3n(c(=NC(=O)c4cnc(N)nc4)nc12)CCN3 + CNC(C)C(=O)NC1CN(S(=O)(=O)c2cccc(S(=O)(=O)N3CCC4CCC(C(=O)NC(c5ccccc5)c5ccccc5)N4C(=O)C(NC(=O)C(C)NC)C3)c2)CCC2CCC(C(=O)NC(c3ccccc3)c3ccccc3)N2C1=O
6. O=C(c1ccc(F)c(F)c1Nc1ccc(I)cc1F)N1CC(O)([C@@H]2CCCCN2)C1 + Cc1c(S(C)(=O)=O)c(-c2cc(F)cc(N3CCN(c4ccc(NS(=O)(=O)c5ccc(NC(CCN6CCC(C(=O)OCCCP(=O)(O)O)CC6)CSc6ccccc6)c(S(=O)(=O)C(F)(F)F)c5)cc4)CC3)c2)c(-c2ccc(Cl)cc2)n1C(C)C
7. NC1CCC(NC2CC2c2ccccc2)CC1 (stereo not drawn) + Cc1c(S(C)(=O)=O)c(-c2cc(F)cc(N3CCN(c4ccc(NS(=O)(=O)c5ccc(NC(CCN6CCC(C(=O)OCCCP(=O)(O)O)CC6)CSc6ccccc6)c(S(=O)(=O)C(F)(F)F)c5)cc4)CC3)c2)c(-c2ccc(Cl)cc2)n1C(C)C

1. 97.6
2. 78.3
3. 86.7
4. 96.4
5. 82.2
6. 76
7. 113

For each of the items listed, what is its viability, T/C?
1. COc1c(OCCCN2CCOCC2)ccc2c3n(c(=NC(=O)c4cnc(N)nc4)nc12)CCN3 + Cc1c(S(C)(=O)=O)c(-c2cc(F)cc(N3CCN(c4ccc(NS(=O)(=O)c5ccc(NC(CCN6CCC(C(=O)OCCCP(=O)(O)O)CC6)CSc6ccccc6)c(S(=O)(=O)C(F)(F)F)c5)cc4)CC3)c2)c(-c2ccc(Cl)cc2)n1C(C)C
2. O=C(c1cc(Cc2n[nH]c(=O)c3ccccc23)ccc1F)N1CCN(C(=O)C2CC2)CC1 + Cc1c(S(C)(=O)=O)c(-c2cc(F)cc(N3CCN(c4ccc(NS(=O)(=O)c5ccc(NC(CCN6CCC(C(=O)OCCCP(=O)(O)O)CC6)CSc6ccccc6)c(S(=O)(=O)C(F)(F)F)c5)cc4)CC3)c2)c(-c2ccc(Cl)cc2)n1C(C)C
3. C#Cc1c(F)ccc2cc(O)cc(-c3ncc4c(N5CC6CCC(C5)N6)nc(OCC56CCCN5CC(F)C6)nc4c3F)c12 (stereo not drawn) + CNC(C)C(=O)NC1CN(S(=O)(=O)c2cccc(S(=O)(=O)N3CCC4CCC(C(=O)NC(c5ccccc5)c5ccccc5)N4C(=O)C(NC(=O)C(C)NC)C3)c2)CCC2CCC(C(=O)NC(c3ccccc3)c3ccccc3)N2C1=O
4. CCN1CCN(Cc2ccc(Nc3ncc(F)c(-c4cc(F)c5nc(C)n(C(C)C)c5c4)n3)nc2)CC1 + Cc1c(S(C)(=O)=O)c(-c2cc(F)cc(N3CCN(c4ccc(NS(=O)(=O)c5ccc(NC(CCN6CCC(C(=O)OCCCP(=O)(O)O)CC6)CSc6ccccc6)c(S(=O)(=O)C(F)(F)F)c5)cc4)CC3)c2)c(-c2ccc(Cl)cc2)n1C(C)C

[85.8, 101, 91.8, 94.2]
